These measurements were taken from PubChem BioAssay.

Protocol Details: growth inhibitors of H69AR lung tumor, primary screen, human, duplicate replicates (AID 580);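 further: 100% = mean luminescence of untreated wells and 0% = no signal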
Run Parameters: H69AR lung tumor cells viability, ATP luminescence, 72 h; at 10 µM
Activity calls are given as the source filed them.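 How the source made its calls: active means viability at or under a set limit in both replicates, limit being median viability minus 3 SD (cut at about 48% in these data, passing the limit was not always enough); inconclusive means at or under the limit in just one replicate; inactive means at or above the limit in both replicates.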
I would appreciate it if you answered using one of these outcomes: active, inactive

CCCCNC(=O)NS(=O)(=O)c1ccc(C)cc1; inactive
O=C(NCC1CCCO1)c1cccc(N2C(=O)C3C4C=CC(C4)C3C2=O)c1 (stereo unspecified); inactive
COC(=O)C1=C(C)Nc2ncnn2C1c1ccco1 (stereo unspecified); inactive
C=C(C)Cn1c(CCNC(=O)CC)nc2ccccc21; inactive
CCOc1cc(C2NC(=O)N(C)C(C)=C2C(=O)OC)cc(Br)c1O (stereo unspecified); inactive

### Prompt In this assay, the call recorded for CCCCCC1CC(CC#CCN2CCOCC2)C(=O)O1 (stereo unspecified) was what?
### Response inactive

### Prompt In this assay, the call recorded for `Nc1nc(Cl)nc2c1ncn2[C@H]1C[C@H](O)[C@@H](CO)O1` was what?
### Response inactive

### Prompt In this assay, the call recorded for `COc1ccccc1C(=O)Nc1ccc(N2CCN(Cc3ccccc3)CC2)cc1` was what?
### Response inactive

### Prompt In this assay, the call recorded for CCOC(=O)C1CSC(CC(=O)Nc2ccc(Cl)cc2)C(=O)N1 (stereo unspecified) was what?
### Response inactive

### Prompt In this assay, the call recorded for `CCCc1cc(=O)[nH]c(/N=C(\N)Nc2ccccc2)n1` was what?
### Response inactive

### Prompt In this assay, the call recorded for `OC1(c2cccc(C(F)(F)F)c2)CCNCC1` was what?
### Response inactive

### Prompt In this assay, the call recorded for `Cc1c(C(=O)NCc2ccccn2)oc2ccccc12` was what?
### Response inactive

* * *

Protocol Details: HUVEC growth inhibition – cell-based, human, primary screen (AID 575);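 further: 100% = median of untreated cell wells with 0.1% DMSO on each plate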
Run Parameters: HUVEC proliferation, CellTiter-Glo luminescence, 72 h; at 10 µM
Active and inactive are the calls of the source.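 How the source made its calls: active means viability at or below 30% in both replicate assays; inconclusive means viability at or below 30% in just one of the two assays; inactive means the rest.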
I would appreciate it if you answered using one of these outcomes: active, inactive

### Prompt In this assay, the call recorded for COc1cccc(N2CCN(CC(=O)c3c[nH]c4ccc(OC)cc34)CC2C)c1 (centres undefined) was what?
### Response inactive

### Prompt In this assay, the call recorded for Cc1ccc(C)c(S(=O)(=O)C(C#N)c2nc3ccccc3nc2N2CC(C)OC(C)C2)c1 (centres undefined) was what?
### Response inactive

### Prompt In this assay, the call recorded for `Cc1cccc(C)c1NC(=O)c1cc(S(=O)(=O)N2CCOCC2)ccc1F` was what?
### Response inactive

### Prompt In this assay, the call recorded for `CC(C)N=c1cc2n(-c3ccc(Cl)cc3)c3ccccc3nc-2cc1Nc1ccc(Cl)cc1` was what?
### Response active

* * *

Protocol Details: reversal of MRP1-mediated doxorubicin resistance, pilot screen, H69AR cells, doxorubicin co-treatment (AID 601)
Run Parameters: H69AR cells + 2 uM doxorubicin, CellTiter-Glo, 72 h; at 10 µM; active compounds read high
Experimental Endpoint: differential viability (reversal) (%)
A number alone suffices; assume %.

CC1(C)CN=C(N2CCN(c3ncnc4sc5c(c34)CCCC5)CC2)S1; -8.36
Cn1c(=O)c(C(=S)NC(=O)C2CC2)c(N)n(Cc2ccccc2)c1=O; -6.6
CCCSc1nc(N)c(C#N)c(-c2ccc(C)cc2)c1C#N; -10.1

### Prompt Recall and state the measured differential viability (reversal) for `COc1cccc(CN=CC2=C(O)CC(C)(C)CC2=O)c1OC` .
### Response -0.91

### Prompt Recall and state the measured differential viability (reversal) for `CC(C)OC(=O)CSc1nnc(-c2cccnc2)n1Cc1ccccc1` .
### Response 9.68

### Prompt Recall and state the measured differential viability (reversal) for `CC1(C)NC(=O)N(CN2C(=O)NC(C)(C)C2=O)C1=O` .
### Response 11.1

### Prompt Recall and state the measured differential viability (reversal) for `Cc1nc2cc(CO)ccc2n1C` .
### Response 9.13

### Prompt Recall and state the measured differential viability (reversal) for `CCc1nnc(NC(=O)CSc2nc3ccccc3s2)s1` .
### Response 10.1

### Prompt Recall and state the measured differential viability (reversal) for CCOc1cc(C2/C(=C(/O)c3ccc(OC(C)C)cc3)C(=O)C(=O)N2CCCOC)ccc1O (centres undefined) .
### Response 1.7
